Test system: MS2 coat protein
Test Details: apparent KD of MS2 coat protein; designed switch direction (-1 OFF switch, 1 ON switch): -1; higher = weaker reporter binding
Test Parameters: input ligand: none
The following sequences are shown together with reported apparent KD of MS2 coat protein values.
The response must be a number in µM with no trailing unit.

Reference set (2 entries):
Challenge: Can you share its apparent KD of MS2 coat protein? I mean this sequence: AUUCCACAUGAGGAUCACCCAUGUCAGGAUAUGCAUAGUCCUGCCACAUAGGACUAGCGCAGAAGGGAUCGGGC [Eternabot (L2) Solution 20] (Eterna round: R97, puzzle: Exclusion 1)
Response given: 0.019

Challenge: Reported apparent KD of MS2 coat protein for GAGAGCAACGUCAGGAUAUUUAACCAAAACGCGGUAGAGAAGGGACAUGAGGAUCACCCAUGUGACUUCGGGCA [Eternabot (L1) Solution 83] (Eterna round: R97, puzzle: Brourd's mod of Exclusion 4) : what is it?
Response given: 0.0168

# context switch: different sequence, same apparent KD of MS2 coat protein
Challenge: For the sequence GUCUGGCUAGGAUAUACAGUGUCCACAAGUUAGUUACCCUAACAUGAGGAUCACCCAUGUAGAAGGAGUGAGAA [Revebeed] (Eterna round: R96, puzzle: Exclusion 2) , what apparent KD of MS2 coat protein is on record?
Response given: 0.0454

* * *

Tested on: MS2 coat protein
Test Details: apparent KD of MS2 coat protein; designed switch direction (-1 OFF switch, 1 ON switch): -1; higher = weaker reporter binding
Test Parameters: input ligand: FMN 200 uM
Experimental Readout: apparent KD of MS2 coat protein

Recorded results for 3 sequences are shown here.
Challenge: Fill blank: measured apparent KD of MS2 coat protein of the sequence GGUUCGUGAGGAUAUGUGGCUUCGAUCGUGCGAAGAAGGCUACAGAAGGCACAUGAGGAUCACCCAUGUUCGUC [salish99_ex4_r4_228] (Eterna round: R97, puzzle: Exclusion 4) is ____.
Response given: 241 nM

Challenge: Requested field: apparent KD of MS2 coat protein. Item: GUCAGCUCGUGAGGAUAUACAUGCGUGCUUCGGCACGAAUUUAAGAUCACAUGAGGAUCACCCAUGUAGAAGGCACGAGCUGAU [ENG2/3-A2] (Eterna round: R96, puzzle: Exclusion NG 2)
Response given: 366 nM

Challenge: # get_value(readout='apparent KD of MS2 coat protein', item= UAUUAGCAAGCGAGGUCCCACAUGAGGAUCACCCAUGUGCUCGUCUUAUAAGGUACUGUGACGAAAGUCACGGUACC [Sensor 3, v1 - 91 v8] (Eterna round: R97, puzzle: Sensor, turn-off variant 1) )
Response given: 14.7 nM

Continuing:
Challenge: # input sequence: CCGAAAUCCUAGGAUAUGCUAGACGAAAGUCUAGCAGAAGGAGGAACAUGAGGAUCACCCAUGUGUCCUAUCGG [Mat - Exclusion 6 - Eli Mod - D30] (Eterna round: R97, puzzle: Exclusion 6) ; wanted: its apparent KD of MS2 coat protein
Response given: 23.1 nM

Challenge: Any idea what apparent KD of MS2 coat protein was measured for CCGGUUGGCGCAGGAUAUACAUGAGGAUCACCCAUGUUCAUGAGGAUCACUCAUGAGUUUUUGUUGUAGAAGGGUGGCCCGGCC (Eterna round: R96, puzzle: Exclusion NG 2) ?
Response given: 1170 nM
